- assayName: ATG_PPRE_CIS: Attagene CIS-FACTORIAL HepG2 Assay for human Peroxisome Proliferator-activated Response Element (PPRE) (AID 2282958)
- conditionSet: HepG2 PPRE cis-element reporter, Attagene transcription factor profiling; actives raise or lower the signal
Activity calls are given as the source filed them. The calls were made as follows: active = hit-call score of the fitted dose curve at least 0.9, where 1 is the maximum; inactive = score below 0.9.
Return exactly one item of active, inactive

# count of solved cases: 2
[[record]]
compoundsmiles = "CC(C)[N+](C)(CCOC(=O)C1c2ccccc2Oc2ccccc21)C(C)C"
assignedcategory = "active"

[[record]]
compoundsmiles = "COc1nccnc1CC(C)C"
assignedcategory = "inactive"


Per the records of this test, what outcome belongs to CCOC(=O)C1=NOC(c2ccccc2)(c2ccccc2)C1 ?
inactive

Hi, sorry to bother you, what did the test record for C=CC(=O)NCOCCCC ?
inactive

Which outcome was assigned to CC(=O)OCC=C(C)C in this test?
inactive

* * *

- Read-out: Interleukin-8 (IL8), CXCL8 (gene 3576)
- assayName: BSK_3C_IL8: BioMAP Diversity Plus: 3C Assay for Interleukin-8 (IL8) Biomarker Activity (AID 2283020)
- conditionSet: primary human endothelial cells (HUVEC); actives raise or lower the signal
The source made the active and inactive calls. How the source made its calls: active means hit-call score of the fitted dose curve at least 0.9, where 1 is the maximum; inactive means score below 0.9.
Classes to choose from: active, inactive

Below, 3 compounds whose answers are already recorded.
[[record]]
compound = "COc1ccc(C(=O)c2ccccc2)c(O)c1"
assignedcategory = "inactive"

[[record]]
compound = "CC/C=C\\CCOC(=O)c1ccccc1O"
assignedcategory = "active"

[[record]]
compound = "CC(C)C(=O)OCCc1ccccc1"
assignedcategory = "inactive"


Any idea what this test logged for c1ccc2c(c1)[nH]c1ccccc12 ?
inactive

Each compound tested received a call. Report the one for CC=C(C)C(C)=O .
inactive

State the result this test recorded for Oc1ccccc1Cc1ccccc1O .
inactive

For this compound, state the assay outcome: CC(C)CCCCCOC(=O)CS
inactive

I'd appreciate the recorded outcome for C=C(C)C(=O)OCCCCCCCCCCCC from this test.
inactive

Record request — test call for CCCCCCCO
inactive

How did this test come out for C=CC(=O)NCOCCCC ?
inactive

I would be grateful if you could indicate the recorded call for CCOC(=O)C1=NN(c2ccc(Cl)cc2Cl)C(C)(C(=O)OCC)C1 (stereo not given) .
inactive

Hi team, can someone confirm the assay call for Cc1ccc([N+](=O)[O-])cc1N ?
inactive

Identify the outcome logged in this assay for the compound shown: CCCCCCCCCCCC(=O)N(C)CC(=O)O
inactive

What call does the record list for CCCC(C)C(=O)OCC (stereo not given) ?
inactive

Kindly provide the recorded test outcome for the following compound: Oc1c(Cl)cc(Cl)c(Cl)c1Cl
active

* * *

- assayName: ATG_ERE_CIS: Attagene CIS-FACTORIAL HepG2 Assay for Estrogen Response Element (ERE) (AID 2282940)
- conditionSet: HepG2 ERE cis-reporter, Attagene RNA transcript; actives raise or lower the signal
The source made the active and inactive calls. How the source made its calls: active means hit-call score of the fitted dose curve at least 0.9, where 1 is the maximum; inactive means score below 0.9.
Response enum: active, inactive

GET /call?item= COC(OC)(C(=O)c1ccccc1)c1ccccc1 returns the recorded outcome of this test.
active

* * *

- assayName: BSK_3C_Proliferation: Cell Proliferation Assessment in the BioMAP Diversity Plus: 3C Assay (AID 2283006)
- conditionSet: primary human endothelial cells (HUVEC)
The source made the active and inactive calls. The calls were made as follows: active = hit-call score of the fitted dose curve at least 0.9, where 1 is the maximum; inactive = score below 0.9.
Allowed answers: active, inactive

These recorded examples may help you get a feel for the data.
[[record]]
compound = "CCOC(=O)/C=C\\C(=O)OCC"
assignedcategory = "inactive"

[[record]]
compound = "Oc1c(Cl)cc(Cl)c(Cl)c1Cl"
assignedcategory = "active"

[[record]]
compound = "CCCCCCC=O"
assignedcategory = "inactive"

[[record]]
compound = "Nc1cccc(N)n1"
assignedcategory = "inactive"

[[record]]
compound = "CC(c1cc(C(C)(C)C)cc(C(C)(C)C)c1O)c1cc(C(C)(C)C)cc(C(C)(C)C)c1O"
assignedcategory = "active"


Assay outcome for CCC1(C)C(=O)N(Cl)C(=O)N1Cl (stereo not drawn) : what was it?
inactive

Field: outcome | Entry: COc1ccc(C(=O)c2ccccc2)c(O)c1
inactive

Dear all, I need the recorded test outcome for CCc1cccc(C)c1N(C(=O)CS(=O)(=O)O)C(C)COC (stereo not drawn) , thank you.
inactive

* * *

- measuredTarget: human Thyroid hormone Receptor beta (TRb), THRB (gene 7068) (UniProt P10828)
- Sequence (P10828 whole entry, looked up): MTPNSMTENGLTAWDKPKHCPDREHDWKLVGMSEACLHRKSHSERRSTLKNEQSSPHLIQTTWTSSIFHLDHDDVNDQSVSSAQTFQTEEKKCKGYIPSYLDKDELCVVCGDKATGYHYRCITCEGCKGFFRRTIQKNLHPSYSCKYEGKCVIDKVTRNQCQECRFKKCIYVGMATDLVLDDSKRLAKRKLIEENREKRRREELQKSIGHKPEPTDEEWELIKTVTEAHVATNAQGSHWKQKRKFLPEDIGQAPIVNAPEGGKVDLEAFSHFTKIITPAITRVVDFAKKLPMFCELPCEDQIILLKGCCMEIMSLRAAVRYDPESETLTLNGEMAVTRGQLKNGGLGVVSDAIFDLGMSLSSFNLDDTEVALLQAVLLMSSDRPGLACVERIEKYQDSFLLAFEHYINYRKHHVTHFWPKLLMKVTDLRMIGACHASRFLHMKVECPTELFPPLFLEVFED
- assayName: ATG_hTRb_XSP2: Attagene TRANS-FACTORIAL Multi-Species (XSP2) HepG2 Assay for human Thyroid hormone Receptor beta (TRb) (AID 2283840);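 also: actives raise reporter mRNA so potency reflects agonist-like gain of signal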
Inconclusive results are not listed. Active and inactive are the calls of the source. How the source made its calls: active means hit-call score of the fitted dose curve at least 0.9, where 1 is the maximum; inconclusive means response in the unintended direction; inactive means score below 0.9.
assayMetric: outcome

Example cases with answers are listed next.
[[record]]
compoundsmiles = "Oc1ccccc1Cc1ccccc1O"
recordedresult = "inactive"

[[record]]
compoundsmiles = "CC(CCC(=O)O)(c1ccc(O)cc1)c1ccc(O)cc1"
recordedresult = "inactive"

[[record]]
compoundsmiles = "C=C1C[C@H]2[C@@H]3C=C(C)C4=CC(=O)CC[C@]4(C)[C@H]3CC[C@]2(C)[C@@]1(OC(C)=O)C(C)=O"
recordedresult = "inactive"

[[record]]
compoundsmiles = "Oc1ccc(-c2ccccc2)c(Cl)c1"
recordedresult = "inactive"


Please examine the following record next.
Entry COc1ccc(-c2coc3cc(O)cc(O)c3c2=O)cc1 , system human Thyroid hormone Receptor beta (TRb), THRB (gene 7068) (UniProt P10828): what outcome was measured?
inactive

* * *

- measuredTarget: Estrogen receptor (Homo sapiens)
- assayName: ATG_ERa_TRANS: Attagene TRANS-FACTORIAL HepG2 Assay for human Estrogen Receptor alpha (ERa) (AID 2282970)
- conditionSet: HepG2 Attagene TRANS ERa GAL4 reporter, mRNA
Records with an inconclusive call do not appear. Activity calls are given as the source filed them. Rule for the calls: active = hit-call score of the fitted dose curve at least 0.9, where 1 is the maximum; inconclusive = response in the unintended direction; inactive = score below 0.9.
Result category, one only: yes (1) (active), no (0) (inactive)

Known results for compounds:
[[record]]
compound = "CCCCCC[C@@H](O)C/C=C\\CCCCCCCC(=O)OCC(O)CO (stereo partly drawn)"
assignedcategory = "no (0)"

[[record]]
compound = "C=CC(=O)NC(C)(C)C"
assignedcategory = "no (0)"

[[record]]
compound = "CN(C)c1ccc2nc3ccc(=[N+](C)C)cc-3sc2c1"
assignedcategory = "no (0)"

[[record]]
compound = "O=C(Oc1ccccc1)c1ccccc1C(=O)Oc1ccccc1"
assignedcategory = "no (0)"

[[record]]
compound = "CC(C)c1ccc(O)c(C(C)C)c1"
assignedcategory = "yes (1)"


Per the assay record, what outcome was assigned to Nc1ccnc(=O)[nH]1 ?
no (0)

Assay result, entry COc1cc(C)ccc1O — outcome?
no (0)

Assay outcome for COc1ccc(C(=O)/C(Br)=C\C(=O)O)cc1 : what was it?
no (0)

Query: recorded result category for Nc1nc(N)nc(-c2ccccc2)n1 in this test
no (0)

* * *

- measuredTarget: Estrogen receptor (Homo sapiens) (UniProt P03372)
- Sequence (P03372 whole entry, looked up): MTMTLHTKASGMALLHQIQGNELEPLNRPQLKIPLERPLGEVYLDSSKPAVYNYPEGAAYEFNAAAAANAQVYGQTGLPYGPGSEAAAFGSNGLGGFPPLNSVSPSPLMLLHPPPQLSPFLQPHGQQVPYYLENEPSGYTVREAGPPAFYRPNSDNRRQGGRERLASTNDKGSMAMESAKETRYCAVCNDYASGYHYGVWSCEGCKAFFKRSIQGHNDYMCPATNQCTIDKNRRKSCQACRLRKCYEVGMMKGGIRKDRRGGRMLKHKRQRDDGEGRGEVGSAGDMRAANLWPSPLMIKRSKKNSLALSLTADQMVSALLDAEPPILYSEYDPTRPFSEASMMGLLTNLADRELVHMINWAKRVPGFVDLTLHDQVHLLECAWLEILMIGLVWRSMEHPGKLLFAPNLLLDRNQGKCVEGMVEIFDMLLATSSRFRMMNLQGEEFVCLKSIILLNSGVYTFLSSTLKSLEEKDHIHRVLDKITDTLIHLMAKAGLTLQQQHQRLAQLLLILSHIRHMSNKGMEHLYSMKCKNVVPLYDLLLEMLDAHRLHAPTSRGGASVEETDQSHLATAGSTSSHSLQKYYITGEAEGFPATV
- assayName: CCTE_Deisenroth_AIME_384WELL_LUC_Active: CCTE's 384-well Estrogen Receptor Transactivation Assay with AIME metabolic competence (ERTA luciferase; metabolism positive), Deisenroth Lab (AID 2284030)
Records with an inconclusive call do not appear. Active and inactive are the calls of the source. Rule for the calls: active = hit-call score of the fitted dose curve at least 0.9, where 1 is the maximum; inconclusive = response in the unintended direction; inactive = score below 0.9.
The reply should name one outcome from true = active, false = inactive

[[record]]
compound = "CCCCCCCCCCCCCC(=O)OC(C)C"
assignedcategory = "false"

[[record]]
compound = "O=C(Oc1ccccc1)c1ccccc1O"
assignedcategory = "false"

[[record]]
compound = "O=C(O)C1CCC(C(=O)O)CC1 (stereo not given)"
assignedcategory = "false"


Hey, what did the test say about CC(CCC(=O)O)(c1ccc(O)cc1)c1ccc(O)cc1 ?
true

What did this assay record as the result for CCCCNS(=O)(=O)c1ccccc1 ?
false

* * *

- measuredTarget: Transcriptional activator Myb (Homo sapiens) (UniProt P10242)
- Sequence (P10242 whole entry, looked up): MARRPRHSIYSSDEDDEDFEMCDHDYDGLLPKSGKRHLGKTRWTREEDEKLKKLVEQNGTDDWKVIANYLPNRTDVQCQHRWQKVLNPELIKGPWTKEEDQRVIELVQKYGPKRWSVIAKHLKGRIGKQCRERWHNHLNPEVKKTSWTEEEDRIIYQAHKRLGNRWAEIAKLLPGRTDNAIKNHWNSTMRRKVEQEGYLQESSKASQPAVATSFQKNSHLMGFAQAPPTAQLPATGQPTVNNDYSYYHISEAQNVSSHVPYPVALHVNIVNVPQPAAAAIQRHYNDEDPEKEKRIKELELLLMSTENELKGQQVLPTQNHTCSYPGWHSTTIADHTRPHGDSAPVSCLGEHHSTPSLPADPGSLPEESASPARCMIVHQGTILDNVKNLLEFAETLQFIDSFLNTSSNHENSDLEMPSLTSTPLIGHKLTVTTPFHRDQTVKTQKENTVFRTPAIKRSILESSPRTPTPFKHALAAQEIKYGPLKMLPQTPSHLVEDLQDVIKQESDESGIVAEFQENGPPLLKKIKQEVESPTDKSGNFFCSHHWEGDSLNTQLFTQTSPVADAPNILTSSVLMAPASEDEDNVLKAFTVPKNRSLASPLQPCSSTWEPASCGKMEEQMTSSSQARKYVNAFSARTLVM
- assayName: ATG_Myb_CIS: Attagene CIS-FACTORIAL HepG2 Assay for human Myeloblastosis (Myb) Proto-Oncogene Transcription Factor (AID 2282986)
- conditionSet: HepG2 Attagene CIS-FACTORIAL Myb reporter transcription; actives raise or lower the signal
The source made the active and inactive calls. The calls were made as follows: active = hit-call score of the fitted dose curve at least 0.9, where 1 is the maximum; inactive = score below 0.9.
Could you please pick one outcome from this set? class 1 (active), class 0 (inactive)

Worked cases, answers included:
[[record]]
compound = "CC(=O)c1ccccc1O"
measuredtarget = "Transcriptional activator Myb (Homo sapiens) (UniProt P10242)"
assignedcategory = "class 0"

[[record]]
compound = "N#CC1(N)CCCCC1"
measuredtarget = "Transcriptional activator Myb (Homo sapiens) (UniProt P10242)"
assignedcategory = "class 0"

[[record]]
compound = "CC=CC(=O)OCC(C)C"
measuredtarget = "Transcriptional activator Myb (Homo sapiens) (UniProt P10242)"
assignedcategory = "class 0"


Would you mind telling me which call this test gave CC(C)(C)NC(=O)[C@H]1CC[C@H]2[C@@H]3CC[C@H]4NC(=O)C=C[C@]4(C)[C@H]3CC[C@]12C ?
class 0

State the result this test recorded for CC(C)OC(=O)c1ccccc1 .
class 0

Tell me the assay call for O=C(OCc1ccccc1)c1ccc(O)cc1 please.
class 0
